Where these numbers come from: the supplement of paper PMC11451515

Tested on: SEM cells
Experiment: cell viability relative to DMSO control; higher = less cytotoxic
Details: RPMI 5 mM glucose + 10% dialyzed FBS; 48 h; 15.4 µM
The following compounds are shown together with reported cell viability values.
State just the number; it will be interpreted in %.

Consider the reported cell viability for these compounds:
compound: Cc1nc2cc(C(=O)N3CCC4(CC3)CC(=O)c3c(cnn3C(C)C)C4)ccc2[nH]1
target entity: SEM cells
readout label: cell viability
observed: 126
--
compound: COc1ccc(OC)c(-c2nnc3ccc(-c4ccc(OC)c(O[C@@H]5CCOC5)c4)nn23)c1
target entity: SEM cells
readout label: cell viability
observed: 122
--
compound: CC\12CCC(=O)\C=C1CCC3C2CCC4(C)C3CCC4(O)C#C (stereo not drawn)
target entity: SEM cells
readout label: cell viability
observed: 106
--
compound: Cc1cc(O)c2c(c1)C(=O)c1cccc(O)c1C2=O
target entity: SEM cells
readout label: cell viability
observed: 81.2
--
compound: CCN1\C=C(\C(O)=O)C(=O)C2=C1N=C(N3CCNCC3)C(=C2)F
target entity: SEM cells
readout label: cell viability
observed: 103
--
compound: NC(=O)Nc1sc(-c2ccc(F)cc2)cc1C(N)=O
target entity: SEM cells
readout label: cell viability
observed: 55.9
--
compound: C[C@@H]1O[C@@H](O[C@H]2C[C@@H](O)[C@]3(CO)[C@H]4[C@H](O)C[C@]5(C)[C@@H](C6=CC(=O)OC6)CC[C@]5(O)[C@@H]4CC[C@]3(O)C2)[C@H](O)[C@H](O)[C@H]1O
target entity: SEM cells
readout label: cell viability
observed: 7.07

Next up:
Sample `Cc1ccc([N+](=O)[O-])cc1[S+](=O)([O-])N(C)/N=C/c1cnc2ccc(Br)cn12` — what was its cell viability?
4.76
